Reported IC50 values for a set of compounds
- Assay system: BRD4 BD2 (Homo sapiens, UniProt O60885, Y97A)
- Construct: BRD4 (1-477) (Y97A) and (Y390A); made in house; host or cells: E. coli (pET15b vector)
- Test: BRD4 BD2 mutant TR-FRET competition assay
- Assay type: binding
- Experimental context: average of N recorded values, read-out: BRD4 BD2 IC50 (average value) (converted)
Measured quantity: IC50

structure_as_smiles=CNC(=O)c1cc(C(=O)NCCC2CCNCC2)cn(Cc2cccc3[nH]ccc23)c1=O readout_value="15.8 nM"
structure_as_smiles=CNC(=O)c1cc(C(=O)NCCC[C@H]2OC[C@H](N)CO2)cn(Cc2ccccc2)c1=O readout_value="50.1 nM"
structure_as_smiles=CNC(=O)c1cc(C(=O)NCCCC2CCN(CCO)CC2)cn(Cc2ccccc2)c1=O readout_value="39.8 nM"
structure_as_smiles=CNC(=O)c1cc(C(=O)NCCCC2CCNCC2)cn(Cc2ccccc2)c1=O readout_value="31.6 nM"

* * *

- Assay system: BRD4 BD2 (Homo sapiens, UniProt O60885, Y97A)
- Construct: BRD4 (1-477) (Y97A) and (Y390A); made in house; host or cells: E. coli (pET15b vector)
- Test: BRD4 BD2 mutant TR-FRET competition assay
- Format: binding
- Experimental context: read-out: pIC50 in the BRD4 BD2 assay (converted)
Measured quantity: IC50

compound="CNC(=O)c1cc(C(=O)NC2CCS(=O)(=O)CC2)cn(Cc2ccccc2)c1=O [Example 44]" readout_value="100 to 1000 nM"
compound="CNC(=O)c1cc(C(=O)NCCCC2CCCN(C(=O)OC(C)(C)C)C2)cn(Cc2ccccc2)c1=O (centres unmarked) [Example 59]" readout_value="100 to 1000 nM"
compound="CNC(=O)c1cc(C(=O)N[C@H]2[C@@H]3CNC[C@@H]32)cn(Cc2ccccc2)c1=O [Example 76]" readout_value="≤ 100 nM"
compound="CNC(=O)c1cc(C(=O)NCCCC2CCN(C(=O)OC(C)(C)C)CC2)cn(Cc2ccccc2)c1=O [Example 5]" readout_value="100 to 1000 nM"
compound="CNC(=O)c1cc(C(=O)NCCC2CCNCC2)cn(Cc2cccc(OC)c2)c1=O [Example 20]" readout_value="100 to 1000 nM"
compound="CNC(=O)c1cc(C(=O)NCC2CCOCC2)cn(Cc2ccccc2)c1=O [Example 49]" readout_value="100 to 1000 nM"
compound="CNC(=O)c1cc(C(=O)NCCCC2CCN(C)CC2)cn(Cc2ccccc2)c1=O [Example 7]" readout_value="≤ 100 nM"
compound="CNC(=O)c1cc(C(=O)NCCCC2CCCN(CCF)C2)cn(Cc2ccccc2)c1=O (centres unmarked) [Example 71]" readout_value="≤ 100 nM"

* * *

- Assay system: BRD4 BD2 (Homo sapiens, UniProt O60885, Y97A)
- Construct: BRD4 (1-477) (Y97A) and (Y390A); made in house; host or cells: E. coli (pET15b vector)
- Test: BRD4 BD2 mutant TR-FRET competition assay
- Format: binding
- Experimental context: read-out: pIC50 in the BRD4 BD2 assay (converted)
Structures can show the parent of a compound that is named as a salt.
Measured quantity: IC50

compound="CNC(=O)c1cc(C(=O)NCCC[C@H]2OC[C@H](N)CO2)cn(Cc2ccccc2)c1=O [Example 88]" measured_quantity=IC50 readout_value="≤ 100 nM"
compound="CNC(=O)c1cc(C(=O)NC2CN(S(C)(=O)=O)C2)cn(Cc2ccccc2)c1=O [Example 90]" measured_quantity=IC50 readout_value="100 to 1000 nM"
compound="CNC(=O)c1cc(C(=O)NC2CCS(=O)(=O)C2)cn(Cc2ccccc2)c1=O (stereo not shown) [Example 43]" measured_quantity=IC50 readout_value="100 to 1000 nM"
compound="CNC(=O)c1cc(C(=O)N[C@H]2[C@@H]3CNC[C@@H]32)cn(Cc2cccc3[nH]ccc23)c1=O [Example 80]" measured_quantity=IC50 readout_value="≤ 100 nM"
compound="CNC(=O)c1cc(C(=O)NCCCC2CCN(C(C)=O)CC2)cn(Cc2cccc3[nH]ccc23)c1=O [Example 74]" measured_quantity=IC50 readout_value="≤ 100 nM"
compound="CNC(=O)c1cc(C(=O)NCCCC2CCN(CCF)CC2)cn(Cc2ccccc2)c1=O [Example 29, formic acid salt]" measured_quantity=IC50 readout_value="≤ 100 nM"
compound="CNC(=O)c1cc(C(=O)NCCC2CCS(=O)(=O)CC2)cn(Cc2ccccc2)c1=O [Example 13]" measured_quantity=IC50 readout_value="100 to 1000 nM"
